Below, each entry is listed with its recorded pIC50.
Test system: A549
Run Description: Antiproliferative activity against human A549 cells incubated for 48 hrs by MTT assay
Assay type: functional, cell-based
Condition Description: A549, 48 h
pIC50: −log10 of the molar value.
Reported Endpoint: pIC50

{"Smiles Repr": "COc1ccc(-c2cn3cc(C4=CCN(C(=O)C5CC5)CC4)ccc3n2)cc1OC", "Test Target": "A549", "Measured": 5.04}
{"Smiles Repr": "COc1ccc(-c2cn3cc(C4=CCN(C(=O)C(C)(C)C)CC4)ccc3n2)cc1OC", "Test Target": "A549", "Measured": 5.36}
{"Smiles Repr": "COc1ccc(-c2cn3cc(C4=CCN(C(=O)c5cccc(C(F)(F)F)c5)CC4)ccc3n2)cc1OC", "Test Target": "A549", "Measured": 5.43}
{"Smiles Repr": "COc1ccc(-c2cn3cc(C4=CCN(S(=O)(=O)CCc5ccccc5)CC4)ccc3n2)cc1OC", "Test Target": "A549", "Measured": 5.11}
{"Smiles Repr": "COc1ccc(-c2cn3cc(C4=CCN(S(=O)(=O)C5CCCC5)CC4)ccc3n2)cc1OC", "Test Target": "A549", "Measured": 5.19}
